# target under test: mu opioid receptor (Homo sapiens, UniProt P35372)
# Sequence (P35372 whole entry): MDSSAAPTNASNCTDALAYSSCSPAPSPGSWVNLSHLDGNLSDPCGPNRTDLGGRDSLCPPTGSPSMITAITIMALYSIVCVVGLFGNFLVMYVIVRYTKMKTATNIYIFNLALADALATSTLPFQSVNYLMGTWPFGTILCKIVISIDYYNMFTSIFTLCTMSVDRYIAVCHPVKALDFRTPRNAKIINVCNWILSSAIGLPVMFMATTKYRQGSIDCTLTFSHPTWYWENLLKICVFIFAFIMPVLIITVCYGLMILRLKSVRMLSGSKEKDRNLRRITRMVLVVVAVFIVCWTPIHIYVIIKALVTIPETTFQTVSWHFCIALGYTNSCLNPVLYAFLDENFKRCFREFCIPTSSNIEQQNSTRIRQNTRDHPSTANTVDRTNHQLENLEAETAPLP
measured attribute: pKi
Answer as the number alone; pKi is minus log10 of concentration in mol/L.

Cc1cccc2cccc(CN3CCC4(CC3)C(=O)N(C[C@H](O)CN3CCCC3)CN4c3ccc(F)cc3)c12 | 5.82
Cc1cccc2cccc(CN3CCC4(CC3)C(=O)N(C[C@H](O)CN3CC[C@@H](N(C)C)C3)CN4c3ccc(F)cc3)c12 | 6.31

# input for lookup
Inquiry: What pKi value was documented for this compound, Cc1cccc2cccc(CN3CCC4(CC3)C(=O)N(CC(O)CN3CCC(N(C)C(=O)OC(C)(C)C)C3)CN4c3ccc(F)cc3)c12 (stereo not drawn) ?
Reply text: 6.23
